Property: bioavailability; scope: individual compounds
- experimental-protocol: Bioavailability determination in cynomolgus monkeys
- Type: in vivo
- protocol-conditions: cynomolgus monkey, plasma, 1 mg/kg intravenous and 7.5 mg/kg oral gavage, read-out: bioavailability F
Number in %, nothing else.

compound	bioavailability / %
O=C(O)[C@@H](Cc1cccc(CN(Cc2cccc(C[C@H](C(=O)O)[C@H]3CCNC3)c2)Cc2cccc(C[C@H](C(=O)O)[C@H]3CCNC3)c2)c1)[C@H]1CCNC1 [Comparative Example 1, reference compound]	10.2

Attention now turns to another entry.
Q: Requested field: bioavailability. Item: O=C(O)[C@@H](Cc1cccc(CN(Cc2cccc(C[C@H](C(=O)O)[C@H]3CCNC3)c2)C(=O)c2cccc(C[C@H](C(=O)O)[C@H]3CCNC3)c2)c1)[C@H]1CCNC1 [Example 5]
A: 16.8

---

- test-target: hERG potassium channel (Homo sapiens)
- Construct: expressed in transfected cells; host or cells: HEK-293-hERG cells
- Sequence (Q12809 whole entry): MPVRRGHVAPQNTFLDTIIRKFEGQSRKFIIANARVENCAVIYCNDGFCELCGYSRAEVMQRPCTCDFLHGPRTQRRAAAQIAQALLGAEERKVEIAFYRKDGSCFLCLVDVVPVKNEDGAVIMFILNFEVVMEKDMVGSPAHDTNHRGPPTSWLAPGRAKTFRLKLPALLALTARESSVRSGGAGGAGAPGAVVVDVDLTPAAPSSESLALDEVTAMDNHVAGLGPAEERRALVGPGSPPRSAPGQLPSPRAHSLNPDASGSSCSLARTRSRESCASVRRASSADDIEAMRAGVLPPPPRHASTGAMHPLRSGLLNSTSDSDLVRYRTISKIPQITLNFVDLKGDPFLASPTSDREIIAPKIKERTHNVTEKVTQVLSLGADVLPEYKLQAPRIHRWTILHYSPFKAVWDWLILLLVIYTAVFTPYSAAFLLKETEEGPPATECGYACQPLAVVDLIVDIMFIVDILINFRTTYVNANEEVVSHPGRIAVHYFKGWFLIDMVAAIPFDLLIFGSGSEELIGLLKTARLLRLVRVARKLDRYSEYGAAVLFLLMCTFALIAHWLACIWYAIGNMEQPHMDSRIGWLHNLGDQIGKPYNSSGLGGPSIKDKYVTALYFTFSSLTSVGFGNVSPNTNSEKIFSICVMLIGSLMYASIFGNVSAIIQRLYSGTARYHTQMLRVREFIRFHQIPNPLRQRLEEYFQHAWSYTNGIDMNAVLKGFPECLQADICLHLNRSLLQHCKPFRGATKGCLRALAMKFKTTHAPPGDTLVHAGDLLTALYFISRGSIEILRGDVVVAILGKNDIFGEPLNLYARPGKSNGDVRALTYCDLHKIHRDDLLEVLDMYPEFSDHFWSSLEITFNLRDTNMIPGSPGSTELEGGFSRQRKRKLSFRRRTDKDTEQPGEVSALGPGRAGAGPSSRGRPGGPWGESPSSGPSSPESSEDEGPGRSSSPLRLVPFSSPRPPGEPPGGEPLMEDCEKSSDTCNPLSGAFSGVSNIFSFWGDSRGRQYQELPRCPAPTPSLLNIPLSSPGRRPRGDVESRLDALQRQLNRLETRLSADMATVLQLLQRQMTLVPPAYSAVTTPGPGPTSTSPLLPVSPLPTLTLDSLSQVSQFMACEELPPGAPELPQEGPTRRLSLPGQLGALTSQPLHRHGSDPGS
- experimental-protocol: hERG whole-cell patch clamp experiment
- Assay type: cell-based
- protocol-conditions: HEK-293 cells that express hERG, 1 μM, HEK-293-hERG cell, read-out: inhibition rate
parameter-measured: inhibition at 1 µM (%)
State the answer as a number, implicitly in %.

molecule	test-target	assay-result
O=C(O)[C@@H](Cc1cccc(CN(Cc2cccc(C[C@H](C(=O)O)[C@H]3CCNC3)c2)Cc2cccc(C[C@H](C(=O)O)[C@H]3CCNC3)c2)c1)[C@H]1CCNC1 [Comparative Example 1, reference compound]	hERG potassium channel (Homo sapiens)	24.6

Q: I'd like to know its inhibition at 1 µM. The molecule in question is O=C(O)[C@@H](Cc1cccc(CN(Cc2cccc(C[C@H](C(=O)O)[C@H]3CCNC3)c2)C(=O)c2cccc(C[C@H](C(=O)O)[C@H]3CCNC3)c2)c1)[C@H]1CCNC1
A: 3.47

---

We begin with a simple list: items and their reported inhibition at 3 µM.
- test-target: hERG potassium channel (Homo sapiens)
- Construct: expressed in transfected cells; host or cells: HEK-293-hERG cells
- experimental-protocol: hERG whole-cell patch clamp experiment
- Format: cell-based
- protocol-conditions: HEK-293 cells that express hERG, 3 μM, HEK-293-hERG cell, read-out: inhibition rate
# do not omit the unit; it follows the number

compound	inhibition at 3 µM
O=C(O)[C@@H](Cc1cccc(CN(Cc2cccc(C[C@H](C(=O)O)[C@H]3CCNC3)c2)Cc2cccc(C[C@H](C(=O)O)[C@H]3CCNC3)c2)c1)[C@H]1CCNC1 [Comparative Example 1, reference compound]	29.2%

Q: Request the reported inhibition at 3 µM associated with O=C(O)[C@@H](Cc1cccc(CN(Cc2cccc(C[C@H](C(=O)O)[C@H]3CCNC3)c2)C(=O)c2cccc(C[C@H](C(=O)O)[C@H]3CCNC3)c2)c1)[C@H]1CCNC1
A: 3.67%

---

- experimental-protocol: Exposure determination in beagle dogs
- Type: in vivo
- protocol-conditions: dog, single oral gavage 4.5 mg/kg, plasma
Items are presented alongside their recorded AUC(0-inf).
Provide the reading as a plain figure in µg·h/mL.

compound	parameter-measured	unit-of-measure	assay-result
O=C(O)[C@@H](Cc1cccc(CN(Cc2cccc(C[C@H](C(=O)O)[C@H]3CCNC3)c2)C(=O)c2cccc(C[C@H](C(=O)O)[C@H]3CCNC3)c2)c1)[C@H]1CCNC1	AUC(0-inf)	µg·h/mL	119

Q: Quick one: AUC(0-inf) for O=C(O)[C@@H](Cc1cccc(CN(Cc2cccc(C[C@H](C(=O)O)[C@H]3CCNC3)c2)Cc2cccc(C[C@H](C(=O)O)[C@H]3CCNC3)c2)c1)[C@H]1CCNC1 [Comparative Example 1, reference compound] ?
A: 37.4

The reported numbers originate from patent US20260234125A1.
